Molecular target: T1, PUF4 RNA-binding domain (Saccharomyces cerevisiae, UniProt P25339 537-888)
T1 sequence: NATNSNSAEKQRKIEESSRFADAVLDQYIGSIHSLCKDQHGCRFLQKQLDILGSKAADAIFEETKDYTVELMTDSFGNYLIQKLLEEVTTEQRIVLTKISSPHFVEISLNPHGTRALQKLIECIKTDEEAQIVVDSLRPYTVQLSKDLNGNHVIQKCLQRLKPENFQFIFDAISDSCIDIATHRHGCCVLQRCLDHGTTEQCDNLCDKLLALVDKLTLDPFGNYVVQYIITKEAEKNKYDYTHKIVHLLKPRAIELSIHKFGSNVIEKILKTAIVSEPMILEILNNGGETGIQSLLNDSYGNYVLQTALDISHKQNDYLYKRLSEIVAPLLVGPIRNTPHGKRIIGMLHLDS
Experiment: Mg; RNA-MaP; 20 mM Na-HEPES pH 7.4, 30 mM KOAc, 0.75 mM MgCl2, 0.1% Tween-20, 5% glycerol, 0.1 mg/mL BSA, 2 mM DTT; 25 C; 0.0125-409.6 nM protein
Conditions: tags: N-His6-TEV cleaved; C-SNAP kept, Cy3B-labelled; label: tethered on chip by stalled RNA polymerase
Observation type: Kd (nM)

INSERT INTO measurements (binder, observation_type, bound_type, result_value) VALUES
  ('UCUCUUACACACUAUAACUCUCUU (ssRNA) [Id_ii_S1_P3E.4_K3.3_C3.2_[C-2A]_[T-1C]_H3.3_A3.1_F3.1_T3.2_[T9A]_[A10C]]', 'Kd', '>', 2300),
  ('UCUCUUUGUAUUAUCCUCUUAUCUCUU (ssRNA) [Ie_S1_P5E.1_K5.1_C5.1_H5.1_A5.1_F5.1_[+8CCTCT]_T5.1]', 'Kd', '=', 23.1),
  ('Ie_S2_P4E.1_K4.1_C4.1_H4.1_A4.1_F4.1_[+8CTC]_T4.1 (ssRNA) RNA: UUUGAUUAAUAUGAUAUCGUUCUUUCUUGUAUAUUCUCAUUCUUUCUCGAUAUCAUAUUAAUCUUU', 'Kd', '=', 5.23),
  ('Ib_S2_P4E.1_K4.1_C4.1_H4.1_[T3C]_A4.1_[T5C]_F4.1_T4.1 (ssRNA) RNA: UUUGAUUAAUAUGAUAUCGUUCUUUCUUGCACAUUAUUCUUUCUCGAUAUCAUAUUAAUCUUU', 'Kd', '=', 14.6),
  ('Ic_S4_P5E.1_K5.1_C5.1_H5.1_A5.1_[T5A]_[A7C]_F5.1_[T8C]_[T9G]_[A10C]_T5.1 (ssRNA) RNA: UUUGACAACUGAUCGUUCUUUCUUGUAAUCCGCUUCUUUCUCGAUCAGUUGUCUUU', 'Kd', '=', 946),
  ('ACAAACCGACACUAUUAUUACAAAC (ssRNA) [Id_ii_S3_P4E.4_K4.3_C4.2_[T-1G]_H4.3_A4.1_F4.1_T4.2_[G10T]]', 'Kd', '>', 2300);

Origin of values: paper PMC9352680
